Molecular target: UniProtKB Q4U254
Experiment: Antiviral activity against human rhinovirus-14 (HRV-14) 3C protease using enzyme assay
Assay type: functional, rhinovirus B14
// values below are reported Ki

[
  {
    "compound": "CCCC(NC(=O)[C@@H]1[C@H]2CC[C@H](F)[C@H]2CN1C(=O)[C@@H](NC(=O)OC(C)C)C(C)(C)C)C(=O)C(=O)N[C@@H](C)c1ccccc1 (stereo partly drawn)",
    "Ki (µM)": 9.8
  },
  {
    "compound": "CCCC(NC(=O)C(Cc1ccc(F)cc1)NC(=O)[C@@H](NC(=O)OC(C)C)C(C)C)C(=O)C(=O)N[C@@H](C)c1ccccc1 (stereo partly drawn)",
    "Ki (µM)": 1.36
  },
  {
    "compound": "CCCC(NC(=O)[C@@H]1[C@H]2CC[C@H](F)[C@H]2CN1C(=O)[C@@H](NC(=O)OC(C)C)C(C)C)C(=O)C(=O)N[C@@H](C)c1ccccc1 (stereo partly drawn)",
    "Ki (µM)": 5.5
  }
]

---

Biological target: Human rhinovirus A protease (Human rhinovirus sp., UniProt Q4U254)
Sequence (Q4U254 whole entry): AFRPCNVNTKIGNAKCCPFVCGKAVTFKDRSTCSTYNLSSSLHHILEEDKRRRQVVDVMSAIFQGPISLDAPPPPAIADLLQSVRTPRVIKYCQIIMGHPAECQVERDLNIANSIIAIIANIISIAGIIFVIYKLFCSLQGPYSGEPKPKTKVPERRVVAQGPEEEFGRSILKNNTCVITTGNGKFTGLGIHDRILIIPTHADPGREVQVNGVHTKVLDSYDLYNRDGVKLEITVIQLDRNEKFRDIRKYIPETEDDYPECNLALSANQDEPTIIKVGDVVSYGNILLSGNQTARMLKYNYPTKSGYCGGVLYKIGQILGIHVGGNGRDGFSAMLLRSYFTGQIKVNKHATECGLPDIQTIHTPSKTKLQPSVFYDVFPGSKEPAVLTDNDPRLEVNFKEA
Test: Antiviral activity against human rhinovirus-14 (HRV-14) 3C protease using enzyme assay

[
  {
    "record_smiles": "CCC[C@H](NC(=O)[C@H](Cc1ccccc1)NC(=O)[C@@H](NC(=O)OC(C)C)C(C)C)C(=O)C(=O)N[C@@H](C)c1ccccc1",
    "IC50": "170 nM"
  }
]

---

Biological target: Human rhinovirus A protease (Human rhinovirus sp., UniProt Q4U254)
Test: Antiviral activity against human rhinovirus-14 (HRV-14) 3C protease using enzyme assay
Type: functional, rhinovirus B14
pKi: −log10 of the molar value.
assay_readout: pKi

[
  {
    "compound": "CCC[C@H](NC(=O)[C@H](Cc1ccccc1)NC(=O)[C@@H](NC(=O)OC(C)(C)C)C(C)C)C(=O)NC[C@H](C)c1ccccc1",
    "reading": 4.54
  },
  {
    "compound": "CCC[C@H](NC(=O)[C@H](Cc1ccccc1)NC(=O)[C@@H](NC(=O)OC(C)(C)C)C(C)C)C(=O)C(=O)N[C@H](C)c1ccccc1",
    "reading": 6.15
  },
  {
    "compound": "CCC[C@H](NC(=O)[C@H](Cc1ccccc1)NC(=O)[C@@H](NC(=O)OC(C)C)C(C)C)C(=O)C(=O)N[C@H](C)c1ccccc1",
    "reading": 5.19
  },
  {
    "compound": "CCC[C@H](NC(=O)[C@H](Cc1ccccc1)NC(=O)[C@@H](NC(=O)OC(C)C)C(C)C)C(=O)C(=O)N[C@@H](C)C1CCCCC1",
    "reading": 5.19
  },
  {
    "compound": "CCCC(NC(=O)[C@@H]1[C@H]2CCC[C@H]2CN1C(=O)[C@@H](NC(=O)OC(C)C)C(C)C)C(=O)C(=O)N[C@@H](C)c1ccccc1 (stereo partly specified)",
    "reading": 5.52
  },
  {
    "compound": "CCC[C@H](NC(=O)[C@H](Cc1ccccc1)NC(=O)[C@@H](NC(=O)OC(C)C)C(C)C)C(=O)C(=O)NCc1ccccc1",
    "reading": 5.34
  }
]
